IC50 overview
- System: Jurkat
- protocol notes: Cytotoxicity against human Jurkat cells after 48 hrs by MTT assay
- Format: functional, cell-based

Look over these answered cases.
compound	measurement target	data value
CCOP(=O)(OCC)C(Nc1c(C)cccc1C)c1ccc2c(c1)OCO2 (stereo not given)	Jurkat	> 500 µM
CCOP(=O)(OCC)C(Nc1ccccc1)c1ccc2c(c1)OCO2 (stereo not given)	Jurkat	> 500 µM
CCCCOP(=O)(OCCCC)C(Nc1cccc(Cl)c1)c1ccc2c(c1)OCO2 (stereo not given)	Jurkat	> 500 µM
O=P(Oc1ccccc1)(Oc1ccccc1)C(Nc1cccc(F)c1)c1ccc2c(c1)OCO2 (stereo not given)	Jurkat	490 µM

Please find the next compound below.
IC50 for CCOP(=O)(OCC)C(Nc1ccccc1)c1ccc(OC)c(O)c1 (stereo not given) ?
57 µM
